Some binders, each annotated with its measured Potency luciferase assay.
Assay Target: Amylin 3(a) receptor (human calcitonin receptor (CTa) with RAMP-3) on BHK570 cells (human, UniProt P30988 25-474)
Sequence (P30988 25-474): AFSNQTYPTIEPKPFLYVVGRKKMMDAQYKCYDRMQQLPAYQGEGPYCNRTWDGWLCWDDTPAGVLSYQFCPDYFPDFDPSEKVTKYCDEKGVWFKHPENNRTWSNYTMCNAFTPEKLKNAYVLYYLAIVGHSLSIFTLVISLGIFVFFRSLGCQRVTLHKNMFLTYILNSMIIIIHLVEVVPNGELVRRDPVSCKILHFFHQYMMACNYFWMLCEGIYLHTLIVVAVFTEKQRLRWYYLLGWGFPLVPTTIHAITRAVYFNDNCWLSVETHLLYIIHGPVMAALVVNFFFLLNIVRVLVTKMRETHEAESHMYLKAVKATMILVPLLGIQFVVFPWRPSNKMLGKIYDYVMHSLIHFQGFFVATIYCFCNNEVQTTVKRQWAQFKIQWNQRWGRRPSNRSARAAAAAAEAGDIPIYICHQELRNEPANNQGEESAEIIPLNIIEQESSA
Assay Method Text: cell-based or functional assay
Positions of bridges follow the written chain, without caps; N, C: chain ends. Groups on a side chain read outwards from the residue. No end group written: not given here. *: point of attachment. C20 diacid = O=C(O)CCCCCCCCCCCCCCCCCCC(=O)*; C18 diacid = O=C(O)CCCCCCCCCCCCCCCCC(=O)*; 17‑carboxyheptanoyl = not defined here; AEEA = NCCOCCOCC(=O)O
Number only, in pM; omit the unit.

Solved entries:
{17‑carboxyheptanoyl}-EECNTATCATQRLANFLVHSSNNFGPILPPTNVGSNTY-NH2 (disulfide 3-8 (inferred); reading uncertain; also: printed as N-alpha-(17-carboxyheptanoyl)-Glu-[Glu1]-pramlintide (1-37)) [N-alpha-(17-carboxyheptanoyl)-Glu-[Glu1]-pramlintide (1-37)]; 400
KCK(C18 diacid)TATCATQRLANFLVHSSNNFGPILPPTNVGSNTY-NH2 (disulfide 2-7 (inferred)) [N-epsilon3-(17-carboxyheptadecanoyl)-[Lys3]-pramlintide (1-37)]; 50
KCK([AEEA-Glu-Glu-C20 diacid])TATCATQRLANFLVRSSQNLGPVLPPTNVGSNTY-NH2 (disulfide 2-7 (inferred)); 300
KCK([AEEA-AEEA-C18 diacid])TATCATQRLANFLVHSSNNFGPILPPTNVGSNTY-NH2 (disulfide 2-7 (inferred)); 100

Proceeding to the next binder to report its Potency luciferase assay.
Potency luciferase assay in this record for {C20 diacid}-ERCNTATCATQRLANFLVHSSNNFGPILPPTNVGSNTY-NH2 (disulfide 3-8 (inferred)) [N-alpha-(19-carboxynonadecanoyl)-Glu-[Arg1]-pramlintide (1-37)] : 100
